Origin of measurements: paper PMC11880180

target: MAOA (monoamine oxidase A) (Homo sapiens); construct: recombinant human MAOA (M7316-1VL); experiment: MAO-Glo activity assay with recombinant MAOA (IC50 […] in PEG, […] in PBS); fluorescent SDS-PAGE band of pure protein
Sequence (P21397 whole entry): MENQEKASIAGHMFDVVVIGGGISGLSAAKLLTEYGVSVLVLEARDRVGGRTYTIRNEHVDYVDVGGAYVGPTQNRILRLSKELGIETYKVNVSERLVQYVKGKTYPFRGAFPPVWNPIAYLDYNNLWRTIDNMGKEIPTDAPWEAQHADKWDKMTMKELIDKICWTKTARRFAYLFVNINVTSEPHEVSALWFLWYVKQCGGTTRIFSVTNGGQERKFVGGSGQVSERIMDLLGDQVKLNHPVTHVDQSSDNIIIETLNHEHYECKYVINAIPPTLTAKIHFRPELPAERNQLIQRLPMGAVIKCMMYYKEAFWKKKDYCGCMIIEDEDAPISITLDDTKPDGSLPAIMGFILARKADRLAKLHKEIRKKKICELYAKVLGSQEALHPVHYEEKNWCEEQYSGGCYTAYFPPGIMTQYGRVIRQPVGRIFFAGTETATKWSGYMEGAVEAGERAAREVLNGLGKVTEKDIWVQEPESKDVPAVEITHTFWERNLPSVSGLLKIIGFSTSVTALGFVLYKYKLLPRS
Measure Name: IC50 (µM)
The reply should be a number in µM, with the unit left off.

Need IC50 of `C#CCN(CCCNC(=O)CCCCC[N+]1=C(/C=C/C2=C(Cl)C(=C/C=C3\N(CCCCCC(=O)[O-])c4ccccc4C3(C)C)/CCC2)C(C)(C)c2ccccc21)CCCOc1ccc(Cl)cc1Cl` , thanks.
1.6
